target: α2β3γ2 GABAA/BzR (Homo sapiens, UniProt P18507+P47869); test: Competition binding to HEK cell membranes, α2β3γ2; set-up: expressed in transfected cells; details: read-out: Ki α2
pKi: −log10 of the molar value.
// pKi lookup, one value per entry
readout-type: pKi

# compound, target-or-test-system, test-result
records = [
    ("C#Cc1ccc2c(c1)C(c1ccccc1F)=NCC(=O)N2C", "α2β3γ2 GABAA/BzR (Homo sapiens, UniProt P18507+P47869)", 8.92),
    ("O=[N+]([O-])c1ccc2[nH]c3cnc([N+](=O)[O-])cc3c2c1", "α2β3γ2 GABAA/BzR (Homo sapiens, UniProt P18507+P47869)", 7.08),
    ("O=C(OCC(F)(F)F)c1cc2c(cn1)[nH]c1ccc(-c3cccs3)cc12", "α2β3γ2 GABAA/BzR (Homo sapiens, UniProt P18507+P47869)", 6.95),
    ("C#Cc1ccc2c(c1)C(c1ccccc1F)=NCc1c(C(=O)OCC(F)(F)F)ncn1-2 [JYI-59]", "α2β3γ2 GABAA/BzR (Homo sapiens, UniProt P18507+P47869)", 8.59),
    ("C#Cc1ccc2c(c1)C(=O)N1CCC[C@H]1c1c(C(=O)OCC(F)(F)F)ncn1-2", "α2β3γ2 GABAA/BzR (Homo sapiens, UniProt P18507+P47869)", 6.09),
    ("CCOC(=O)c1ncn2c1CN=C(c1ccccc1F)c1cc(Br)ccc1-2", "α2β3γ2 GABAA/BzR (Homo sapiens, UniProt P18507+P47869)", 8.30),
    ("O=C(OCC(F)(F)F)c1ncn2c1CN=C(c1ccccc1F)c1cc(Br)ccc1-2", "α2β3γ2 GABAA/BzR (Homo sapiens, UniProt P18507+P47869)", 8.62),
    ("CC[C@H](C)OC(=O)c1cc2c(cn1)[nH]c1ccccc12 [CM-A50 (S)]", "α2β3γ2 GABAA/BzR (Homo sapiens, UniProt P18507+P47869)", 7.23),
    ("CC(C)(C)OC(=O)c1ncn2c1[C@@H]1CCCN1C(=O)c1cc(-c3ccco3)ccc1-2", "α2β3γ2 GABAA/BzR (Homo sapiens, UniProt P18507+P47869)", 8.26),
]
